experiment: qHTS Assay for Identifying a Potential Treatment of Ataxia-Telangiectasia: Hit Validation; details: Ataxia-telangiectasia cell-based hit validation qHTS, in ATM-null A-T patient fibroblasts; series mostly up to 76.9 µM;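 note: phospho-KAP1 level by AlphaLISA as a proxy for ATM-like kinase activity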
Results filed as inconclusive are left out. The source made the active and inactive calls. Calls come from the whole dose curve; as a rule, active = well fitted activation curve with a large enough effect; inconclusive = small, poorly fitted or top-dose-only effect; inactive = no such curve, though single readings can be large or run the other way.
Output constraint: value belongs to active, inactive

Given N=c1ccn(Cc2ccc([N+](=O)[O-])cc2)cc1 , state the outcome it received in this test.
inactive

Per the assay record, what outcome was assigned to O=C(C[n+]1ccc2c(c1)nnn2-c1ccccc1)c1ccc(Cl)cc1 ?
inactive

What is the recorded call for this compound in the test? CCC(=O)c1ccc2c(c1)OCCO2
inactive

----------
assay: qHTS Assay for Identifying a Potential Treatment of Ataxia-Telangiectasia: Hit Validation; details: Ataxia-telangiectasia cell-based hit validation qHTS, in ATM-null A-T patient fibroblasts; series mostly up to 76.9 µM;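 note: phospho-KAP1 level by AlphaLISA as a proxy for ATM-like kinase activity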
Results filed as inconclusive are left out. Activity calls are given as the source filed them. Calls come from the whole dose curve; as a rule, active = well fitted activation curve with a large enough effect; inconclusive = small, poorly fitted or top-dose-only effect; inactive = no such curve, though single readings can be large or run the other way.
// classify into true (active), false (inactive)

* CC(C)c1ccc(-c2cc(C(=O)N3CCOCC3)c3cc(Br)ccc3n2)cc1 | false

I would be grateful if you could indicate the recorded call for CC(C)OP(=O)(OC(C)C)C(O)c1ccc(N(C)C)cc1 (centres undefined) .
false

Tell me the assay call for Clc1cccc(CN2CCC(Cc3ccccc3)CC2)c1 please.
true
